# system: WIL-FL* (Homo sapiens, UniProt P01721, K101C, form not given)
# experiment-summary: PCFP assay with thermolysin
# test-settings: mean ± sd, n=3; 6.75 μM compound
Consider the following compounds and their measured Thermolysin activity (%) readings.
Answer with a number only, understood to be in %.

Recorded results for 8 compounds are shown here.
Exercise: Fill in the recorded Thermolysin activity (%) for this compound, with WIL-FL* (Homo sapiens, UniProt P01721, K101C, form not given) as test system: CCOC(=O)Cc1c(C)c2ccc(N(CC)CC)cc2oc1=O
Solution: 33.8

Exercise: Fill in the recorded Thermolysin activity (%) for this compound, with WIL-FL* (Homo sapiens, UniProt P01721, K101C, form not given) as test system: CCN(CC)c1ccc2ccc(=O)oc2c1
Solution: 27.1

Exercise: Fill in the recorded Thermolysin activity (%) for this compound, with WIL-FL* (Homo sapiens, UniProt P01721, K101C, form not given) as test system: CCN(CC)c1ccc2c(C)c(I)c(=O)oc2c1
Solution: 45.7

Exercise: Fill in the recorded Thermolysin activity (%) for this compound, with WIL-FL* (Homo sapiens, UniProt P01721, K101C, form not given) as test system: CCN(CC)c1ccc2c(CN3CCOCC3)cc(=O)oc2c1
Solution: 23.3

Exercise: Fill in the recorded Thermolysin activity (%) for this compound, with WIL-FL* (Homo sapiens, UniProt P01721, K101C, form not given) as test system: CC1CCCCC12NC(=O)N(CC(=O)Nc1ccc(C(F)(F)F)cc1)C2=O (stereo not shown)
Solution: 26.3

Exercise: Fill in the recorded Thermolysin activity (%) for this compound, with WIL-FL* (Homo sapiens, UniProt P01721, K101C, form not given) as test system: Cc1cc(=O)oc2cc(OC(C)c3ccccc3)ccc12 (stereo not shown)
Solution: 38.7

Exercise: Fill in the recorded Thermolysin activity (%) for this compound, with WIL-FL* (Homo sapiens, UniProt P01721, K101C, form not given) as test system: CC(Oc1ccc(/C=C(\C#N)C(N)=O)cc1)c1ccccc1 (stereo not shown)
Solution: 40.4

Exercise: Fill in the recorded Thermolysin activity (%) for this compound, with WIL-FL* (Homo sapiens, UniProt P01721, K101C, form not given) as test system: Cc1cc(O)nc(N/N=C/C=C/c2ccccc2[N+](=O)[O-])n1
Solution: 61.1

Further cases:
Exercise: Fill in the recorded Thermolysin activity (%) for this compound, with WIL-FL* (Homo sapiens, UniProt P01721, K101C, form not given) as test system: CCN(CC)c1ccc2c(C)cc(=O)oc2c1
Solution: 36.4

Exercise: Fill in the recorded Thermolysin activity (%) for this compound, with WIL-FL* (Homo sapiens, UniProt P01721, K101C, form not given) as test system: CCN(CC)c1ccc2c(C)c(CC(C)=O)c(=O)oc2c1
Solution: 34.8

Exercise: Fill in the recorded Thermolysin activity (%) for this compound, with WIL-FL* (Homo sapiens, UniProt P01721, K101C, form not given) as test system: CN(C)c1ccc(C2OCC(Cl)([N+](=O)O)CO2)cc1 (stereo not shown)
Solution: 29.1
